Value source: the supplement of paper PMC10567573

B1: CDS2 (parent)
chain: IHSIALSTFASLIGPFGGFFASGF

# Variants of: B1
# Assay Summary: protein stability index of a GFP-peptide fusion (GPS, HEK-293T) (PSI 1-6); higher = more stable;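 further: lentivirally expressed fusions sorted by FACS into six bins by GFP to DsRed ratio, PSI derived from sequencing read proportions per bin multiplied by bin number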
# Experimental Parameters: c terminus: a fixed tail appended
Test Readout: protein stability index

INSERT INTO measurements (sequence_change, experimental_result) VALUES
  ('S7G', 3.09),
  ('S3L', 4.15),
  ('I13Q', 2.45),
  ('A10F', 3.04),
  ('T8R', 3.47),
  ('F19Y', 4.14),
  ('S7P', 2.88),
  ('L6R', 1.67),
  ('H2D', 2.57),
  ('F20V', 3.06),
  ('F16Q', 3.71),
  ('F16M', 3.82),
  ('L6Q', 2.28),
  ('L12F', 4.01),
  ('G18E', 2.89),
  ('A21H', 4.77),
  ('A5K', 3.47),
  ('T8E', 2.67),
  ('S22G', 3.59),
  ('I4T', 3.82),
  ('F19Q', 3.63),
  ('F24N', 3.11),
  ('P15Y', 1.75),
  ('A10I', 4.24),
  ('I4L', 1.57),
  ('I13H', 3.22),
  ('G18Q', 3.3),
  ('F16R', 2.29),
  ('F19T', 3.17),
  ('A21M', 2.69),
  ('S11I', 3.73),
  ('T8N', 3.16),
  ('G18Y', 3.62),
  ('F24P', 3.79),
  ('G23K', 2.05),
  ('G17L', 3.48),
  ('I4E', 2.14),
  ('F24V', 3.32),
  ('G23Q', 2.79),
  ('A5L', 2.15),
  ('G18K', 2.86),
  ('F20Y', 1.92),
  ('T8G', 2.63),
  ('P15R', 1.88),
  ('G18A', 2.37),
  ('F9H', 1.51);
